system: Staphylococcus aureus; assay: Minimum inhibitory concentration against Staphylococcus aureus; assay type: functional
readout_type: MIC (µg/mL)
Give bare numbers, in µg/mL.

See these solved cases before continuing.
COc1cccc2c1C(=O)c1cnccc1C2=O    12.5
Cc1ccnc2c1C(=O)c1c(O)ccc(O)c1C2=O    12.5
Cc1ccnc2c1C(=O)c1ccccc1C2=O [CLEISTOPHOLINE]    25
O=C1c2cnccc2C(=O)c2sccc21    1.56
O=C1c2ccccc2C(=O)c2cnccc21    6.25

Provide MIC values for the following items, in order.
1. Cc1ccnc2c1-c1ccccc1C2=O
2. Cc1ccnc2c1C(=O)c1cccc(O)c1C2=O

Reply:
1. 100
2. 12.5

###

Please provide measured MIC for the entries that follow.
system: Bacillus subtilis; assay: Minimum inhibitory concentration against Bacillus subtilis; format: functional
One number for each entry, in µg/mL.

See these solved cases before continuing.
COc1cccc2c1C(=O)c1ccncc1C2=O    6.25
O=C1c2cnccc2C(=O)c2c(O)cccc21    3.13
Cc1ccnc2c1C(=O)c1ccccc1C2=O [CLEISTOPHOLINE]    25
O=C1c2cnccc2C(=O)c2sccc21    6.25
O=C1c2ccccc2C(=O)c2cnccc21    3.13
Cc1ccnc2c1C(=O)c1c(O)ccc(O)c1C2=O    6.25

Provide MIC values for the following items, in order.
1. Cc1ccnc2c1-c1ccccc1C2=O
2. Cc1ccnc2c1C(=O)c1ccccc1-2 [ONYCHINE]

Reply:
1: 50; 2: 100

###

Please provide measured MIC for the entries that follow.
test system: Cyberlindnera jadinii; assay: Minimum inhibitory concentration against Candida utilis; type: functional; settings: Williopsis jadinii
One number for each entry, in µg/mL.

COc1cccc2c1C(=O)c1ccncc1C2=O    25
Cc1ccnc2c1C(=O)c1ccccc1-2    100

Turning now to a further compound:
# MIC (compound: `O=C1c2ccccc2C(=O)c2cnccc21` ) is 12.5
